Origin of the recorded values: PubChem BioAssay (NCI)

Entries and their measured TGI follow.
test system: SF-539 CNS; experiment: NCI tumour cell line growth inhibition, 48 h

compound: OCc1ccc(-c2nc(-c3ccc4c(c3)OCO4)c(-c3ccccn3)[nH]2)cc1
TGI: > 25 µM

compound: CC(=O)NC(CCCNC(=O)N(C)N=O)C(=O)NCc1ccccc1 (configuration not stated)
TGI: > 100 µM

compound: COC(=O)C(Cc1nc2ccc(Cl)cc2[nH]c1=O)C(=O)C(=O)Nc1cc(C)ccc1C (configuration not stated)
TGI: > 100 µM

compound: CC(C)N(C(=O)C12C3C4C5C3C1(C(=O)O)C5C42)C(C)C (configuration not stated)
TGI: > 100 µM

compound: O=c1[nH]c(-c2ccc(Cl)c(Cl)c2)cn1-c1ccc(Cl)cc1
TGI: 54.2 µM

-- ask Can you share its TGI? I mean this compound: CC(NNC(=O)c1ccncc1)c1ccccc1 (configuration not stated)
-- reply > 100 µM

-- ask Could you share which TGI value was measured for CCOC(=O)Cc1csc(NC(=O)C(OC(=O)c2ccc(Cl)cc2)c2ccccc2)n1 (configuration not stated) ?
-- reply 54.8 µM
